details: Ebola virus entry assay, reporter ratio channel; Channel type: primary
Active and inactive are the calls of the source. The rule behind the calls is not given here. Bridge positions count the residues as written; N and C are the ends. Square brackets hold non-standard residues; d marks the D form. Peptide text beside a SMILES is read from it. hArg = N=C(N)NCCCC[C@H](N)C(=O)O; Mpa = O=C(O)CCS
Classes used: active, inactive

[
  {
    "COMPOUND": "CC(C)(C)c1ccc(C(=O)CCCN2CCC(OC(c3ccccc3)c3ccccc3)CC2)cc1",
    "ASSIGNED_CLASS": "active"
  },
  {
    "COMPOUND": "N[C@H](C(=O)O)c1ccc(O)cc1",
    "ASSIGNED_CLASS": "inactive"
  },
  {
    "COMPOUND": "C#C[C@]1(O)CC[C@H]2[C@@H]3CCC4=CC(=O)CC[C@@H]4[C@H]3CC[C@@]21C",
    "ASSIGNED_CLASS": "inactive"
  },
  {
    "COMPOUND": "Cc1cccc(CN2CCN(C(c3ccccc3)c3ccc(Cl)cc3)CC2)c1 (stereo not drawn)",
    "ASSIGNED_CLASS": "active"
  },
  {
    "COMPOUND": "CCCC(C(=O)OCCN(CC)CC)(c1ccccc1)c1ccccc1",
    "ASSIGNED_CLASS": "active"
  },
  {
    "COMPOUND": "CCOC(=O)n1ccn(C)c1=S",
    "ASSIGNED_CLASS": "inactive"
  },
  {
    "COMPOUND": "CN1CCC(Nc2ncc3ncnc(Nc4ccc(F)c(Cl)c4)c3n2)CC1",
    "ASSIGNED_CLASS": "inactive"
  },
  {
    "COMPOUND": "CC(C)=CCNc1ncnc2c1ncn2[C@@H]1O[C@H](CO)[C@@H](O)[C@H]1O",
    "ASSIGNED_CLASS": "inactive"
  },
  {
    "COMPOUND": "CC(Cc1ccc2c(c1)OCO2)NO (stereo not drawn)",
    "ASSIGNED_CLASS": "inactive"
  },
  {
    "COMPOUND": "CC1=C(C)C(=O)C(C(CCCCCC(=O)O)c2ccccc2)=C(C)C1=O (stereo not drawn)",
    "ASSIGNED_CLASS": "inactive"
  },
  {
    "COMPOUND": "C[N+]1(CCC(C(N)=O)(c2ccccc2)c2ccccc2)CCCCC1",
    "ASSIGNED_CLASS": "inactive"
  },
  {
    "COMPOUND": "C=CCNc1nc(NCC=C)nc(N2CCN(C(c3ccc(F)cc3)c3ccc(F)cc3)CC2)n1",
    "ASSIGNED_CLASS": "inactive"
  },
  {
    "COMPOUND": "Cc1ccc(O)cc1",
    "ASSIGNED_CLASS": "inactive"
  },
  {
    "COMPOUND": "Clc1ccc(Nc2nnc(Cc3ccncc3)c3ccccc23)cc1",
    "ASSIGNED_CLASS": "active"
  },
  {
    "COMPOUND": "NC(=O)[C@@H]1CSSCCC(=O)N[C@@H](CCCCN=C(N)N)C(=O)NCC(=O)N[C@@H](CC(=O)O)C(=O)N[C@@H](Cc2c[nH]c3ccccc23)C(=O)N2CCC[C@H]2C(=O)N1 ([Mpa][hArg]GDWPC-NH2; disulfide 1-7)",
    "ASSIGNED_CLASS": "inactive"
  },
  {
    "COMPOUND": "CC(C)(C)c1ccc(C(=O)CCCCl)cc1",
    "ASSIGNED_CLASS": "inactive"
  },
  {
    "COMPOUND": "Clc1ccc(CSC(Cn2ccnc2)c2ccc(Cl)cc2Cl)cc1 (stereo not drawn)",
    "ASSIGNED_CLASS": "active"
  },
  {
    "COMPOUND": "CN(C)CCOC1=Cc2ccccc2Sc2ccc(Cl)cc21",
    "ASSIGNED_CLASS": "active"
  },
  {
    "COMPOUND": "CC(C(=O)O)c1ccc2c(c1)Cc1cccnc1O2 (stereo not drawn)",
    "ASSIGNED_CLASS": "inactive"
  },
  {
    "COMPOUND": "O=S1(=O)c2cccc3cccc(c23)N1CCCN1CCN(c2ccc(F)cc2)CC1",
    "ASSIGNED_CLASS": "active"
  },
  {
    "COMPOUND": "C[C@]12C=CC(=O)C=C1CC[C@@H]1[C@@H]2CC[C@@]2(C)[C@H]1CC[C@]2(C)O",
    "ASSIGNED_CLASS": "inactive"
  },
  {
    "COMPOUND": "OC1C(O)C(O)C(O)C(O)C1O (stereo not drawn)",
    "ASSIGNED_CLASS": "inactive"
  },
  {
    "COMPOUND": "CN(C)[C@@H](CCOc1cccc2ccccc12)c1ccccc1",
    "ASSIGNED_CLASS": "active"
  }
]

====

system: CP297; experiment: qHTS profiling for inhibitors of Plasmodium falciparum proliferation (AID 504749); note: nearly all actives have a fitted effect of over 60% in size; conditions: P. falciparum in erythrocytes, SYBR Green DNA, 72 h; series mostly up to 28.7 µM
Inconclusive results are not listed. Active and inactive are the calls of the source. Calls follow the shape of the dose curve; as a rule, active = well fitted inhibition curve with a large enough effect; inconclusive = small, poorly fitted or top-dose-only effect; inactive = flat fitted curve, though single readings scatter.
Classes used: t for active, f for inactive

[
  {
    "MOLECULE": "CCS(=O)(=O)C(C)(C)S(=O)(=O)CC",
    "ASSAYED_TARGET": "CP297",
    "ASSIGNED_CLASS": "f"
  },
  {
    "MOLECULE": "CCCCCCCCC(=O)NCc1ccc(O)c(OC)c1",
    "ASSAYED_TARGET": "CP297",
    "ASSIGNED_CLASS": "f"
  },
  {
    "MOLECULE": "CC(C)(C)OC(=O)c1ncn2c1[C@@H]1CCCN1C(=O)c1c(Br)cccc1-2",
    "ASSAYED_TARGET": "CP297",
    "ASSIGNED_CLASS": "f"
  },
  {
    "MOLECULE": "CN1C(=O)CN=C(c2ccccc2)c2cc([N+](=O)[O-])ccc21",
    "ASSAYED_TARGET": "CP297",
    "ASSIGNED_CLASS": "f"
  },
  {
    "MOLECULE": "CCN(CC)C(C)C(=O)c1ccccc1 (centres undefined)",
    "ASSAYED_TARGET": "CP297",
    "ASSIGNED_CLASS": "f"
  },
  {
    "MOLECULE": "COCC(=O)N(c1c(C)cccc1C)C(C)C(=O)OC (centres undefined)",
    "ASSAYED_TARGET": "CP297",
    "ASSIGNED_CLASS": "f"
  },
  {
    "MOLECULE": "C[C@]12Cc3nonc3C[C@@H]1CC[C@@H]1[C@@H]2CC[C@@]2(C)[C@H]1CC[C@]2(C)O",
    "ASSAYED_TARGET": "CP297",
    "ASSIGNED_CLASS": "f"
  },
  {
    "MOLECULE": "Clc1ccc(CO/N=C(\\Cn2ccnc2)c2ccc(Cl)cc2Cl)c(Cl)c1",
    "ASSAYED_TARGET": "CP297",
    "ASSIGNED_CLASS": "t"
  },
  {
    "MOLECULE": "O=C1NCN(c2ccccc2)C12CCN(CCCOc1ccc(F)cc1)CC2",
    "ASSAYED_TARGET": "CP297",
    "ASSIGNED_CLASS": "t"
  }
]

====

conditions: Ebola virus entry assay, reporter ratio channel; Channel type: primary
Activity calls are given as the source filed them. No rule for the calls is given here.
VALUE_TYPE: AC50

[
  {
    "MOLECULE": "CO/N=C(\\C(=O)O)c1csc(NC(=O)CCl)n1",
    "VALUE_TYPE": "AC50",
    "RESULT": "inactive"
  },
  {
    "MOLECULE": "CCOC(=O)CN1CCCC1=O",
    "VALUE_TYPE": "AC50",
    "RESULT": "inactive"
  },
  {
    "MOLECULE": "CCOC(=O)c1cccc(N)c1",
    "VALUE_TYPE": "AC50",
    "RESULT": "inactive"
  },
  {
    "MOLECULE": "c1cnc(N2CCN(Cc3ccc4c(c3)OCO4)CC2)nc1",
    "VALUE_TYPE": "AC50",
    "RESULT": "inactive"
  },
  {
    "MOLECULE": "CCCCCCCCCCCCCCCCCCNC(=O)OC1CCN(C(=O)OC[C@H](COC(=O)N(Cc2cccc[n+]2CC)C(=O)c2ccccc2OC)OC)CC1",
    "VALUE_TYPE": "AC50",
    "RESULT": "inactive"
  },
  {
    "MOLECULE": "CCC(=O)O[C@]1(C(=O)COC)[C@@H](C)C[C@H]2[C@@H]3CCC4=CC(=O)C=C[C@]4(C)C3(F)[C@@H](O)C[C@@]21C (stereo not given in full)",
    "VALUE_TYPE": "AC50",
    "RESULT": "inactive"
  },
  {
    "MOLECULE": "COc1ccc(OC)c(CC(C)N)c1 (stereo not given)",
    "VALUE_TYPE": "AC50",
    "RESULT": "31.6 µM (active)"
  },
  {
    "MOLECULE": "CCn1ccnc1CC1COc2ccccc2O1 (stereo not given)",
    "VALUE_TYPE": "AC50",
    "RESULT": "inactive"
  },
  {
    "MOLECULE": "N[C@@H](CSCCCO)C(=O)O",
    "VALUE_TYPE": "AC50",
    "RESULT": "inactive"
  },
  {
    "MOLECULE": "C/C(=N/NC(=O)c1ccncc1)C(=O)O",
    "VALUE_TYPE": "AC50",
    "RESULT": "inactive"
  },
  {
    "MOLECULE": "O=C1OC(c2ccc(O)cc2)(c2ccc(O)cc2)c2ccccc21",
    "VALUE_TYPE": "AC50",
    "RESULT": "inactive"
  },
  {
    "MOLECULE": "O=C1NCCN1CCN1CCC(c2cn(-c3ccc(F)cc3)c3ccc(Cl)cc23)CC1",
    "VALUE_TYPE": "AC50",
    "RESULT": "1 µM (active)"
  },
  {
    "MOLECULE": "CC(=C(CCOC(=O)C(C)C)SSC(CCOC(=O)C(C)C)=C(C)N(C=O)Cc1cnc(C)nc1N)N(C=O)Cc1cnc(C)nc1N",
    "VALUE_TYPE": "AC50",
    "RESULT": "inactive"
  },
  {
    "MOLECULE": "C[C@H]1CNCCc2ccc(Cl)cc21",
    "VALUE_TYPE": "AC50",
    "RESULT": "39.8 µM (active)"
  },
  {
    "MOLECULE": "CC(C)(C)CC(C)(C)c1ccc(O)c(Cc2ccc(Cl)cc2Cl)c1",
    "VALUE_TYPE": "AC50",
    "RESULT": "14.1 µM (active)"
  }
]
